# Protocol Details: qHTS assay to identify small molecule agonists of the peroxisome proliferator-activated receptor delta (PPARd) signaling pathway - cell viability counter screen (AID 743211); note: nearly all actives have a fitted effect of over 55% in size
# Condition Notes: PPARd-bla HEK293H viability, CellTiter-Glo luminescence, 17 h; series mostly up to 62.6 µM
Inconclusive results are not listed. Calls of active or inactive are those of the source. Calls come from the whole dose curve; as a rule, active = well fitted cell-killing curve with a large enough effect in the repeat runs; inconclusive = weak or mixed curves; inactive = no such curve, though single readings can be large or run the other way.
Outcome (select one): active, inactive

Answered cases to consult:
Compound	Assigned Class
COC(=O)c1cncn1C(C)c1ccccc1 (stereo not given)	inactive
CC(=O)c1cc2c(cc1C)C(C)(C)C(C)CC2(C)C (stereo not given)	inactive
O=[Se]=O	inactive
CCOC(=O)[C@]1(c2ccccc2)Oc2ccccc2[C@@H]1N	active
O=C(O)C1(c2ccc3c(c2)OC[C@H](Cc2ccc(-c4ccccc4)cc2)[C@H]3O)CCCC1	active
O=C(NCc1cccnc1)Nc1ccc([N+](=O)[O-])cc1	inactive
C=CC(=O)NCNC(=O)C=C	inactive
C=C(C#N)CCC#N	inactive

**Query** Give the logged outcome of this assay for the following compound: `COC(C)(C)CCC[C@H](C)C/C=C/C(C)=C/C(=O)OC(C)C`
**Result** active

**Query** Moving on to the next compound: `C/C=C/C=O`
**Result** inactive

**Query** Then `CC(C)O.CC(C)O.OCCN(CCO)CCO.OCCN(CCO)CCO.[Ti]` ?
**Result** inactive

**Query** What do you get for `O=[N+]([O-])C(Br)(CO)CO` ?
**Result** inactive

**Query** Now this one: `C[C@H]1CNCCc2ccc(Cl)cc21`
**Result** inactive

**Query** Proceed to `CCOP(=O)(OCC)SCCSCC`
**Result** inactive

**Query** CCC(Cl)CCl (stereo not given) , same question.
**Result** inactive

**Query** Another compound to look at: `Nc1nc(N)nc(N)n1`
**Result** inactive

**Query** One more compound: `ClCc1cccc(Cl)c1`
**Result** inactive

**Query** Can you check `S=C=NCc1ccccc1` next?
**Result** inactive

**Query** Also need `CCCCNP(N)(N)=S` , thanks.
**Result** inactive

**Query** Consider next the compound `CCCCN=C=O` in the same way.
**Result** inactive

**Query** Now consider `c1ccc(CN2CCNCC2)cc1` .
**Result** inactive

**Query** Now give it for `CCOc1ccc(C(C)(C)COCc2cccc(Oc3ccccc3)c2)cc1` too.
**Result** inactive

**Query** Same again, this time with CC1CC(CC2CCC(N)C(C)C2)CCC1N (stereo not given)
**Result** inactive

**Query** Now the compound `Nc1ccc([N+](=O)[O-])cc1[N+](=O)[O-]`
**Result** inactive

**Query** Param item: `C[C@@H]1CC[C@H]2[C@@H](C)C(=O)O[C@@H]3O[C@@]4(C)CC[C@@H]1[C@]32OO4`
**Result** inactive

**Query** Continue with BrCC(Br)C1CCC(Br)C(Br)C1 (stereo not given)
**Result** inactive

**Query** What would you report for `Cn1sc(Cl)cc1=O` ?
**Result** inactive

**Query** Consider next the compound `NC(=O)C(Cl)(Cl)Cl` in the same way.
**Result** inactive

**Query** One more compound: `Clc1cc(Cl)c(Cl)c(Cl)c1`
**Result** inactive

**Query** Can you check CCC(COC(=O)c1cc(OC)c(OC)c(OC)c1)(c1ccccc1)N(C)C (stereo not given) next?
**Result** inactive

The origin of these recorded values is PubChem BioAssay (Tox21).
